Cited source: ChEMBL document CHEMBL4765436

EXPERIMENTAL_SYSTEM: C-X-C chemokine receptor type 2 (Homo sapiens)
Sequence (P25025 whole entry, the tested form may be a part): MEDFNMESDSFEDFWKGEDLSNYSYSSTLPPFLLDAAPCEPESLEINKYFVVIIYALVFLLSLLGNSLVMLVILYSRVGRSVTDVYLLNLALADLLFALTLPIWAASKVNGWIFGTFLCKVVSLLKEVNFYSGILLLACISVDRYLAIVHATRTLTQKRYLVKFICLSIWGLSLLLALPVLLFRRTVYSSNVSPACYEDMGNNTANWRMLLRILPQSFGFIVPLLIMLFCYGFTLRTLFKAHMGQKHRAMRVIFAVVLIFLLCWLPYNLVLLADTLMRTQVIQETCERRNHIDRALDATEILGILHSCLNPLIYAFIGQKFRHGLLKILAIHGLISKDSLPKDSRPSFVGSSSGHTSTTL
MEASUREMENT_DESCRIPTION: Antagonist activity at CXCR2 (unknown origin) expressed in U2OS cells cotransfected with beta-arrestin/TEV protease fusion protein and beta-lactamase assessed as inhibition of CXCL8-induced beta arrestin2 recruitment preincubated for 30 mins followed by CXCL8 stimulation and measured after 5 hrs by FRET based fluorescence/Tango assay
Format: cell-based
Provide the reported IC50 of each item.
Answers are plain numbers, in µM.

Answered cases to consult:
COMPOUND	EXPERIMENTAL_SYSTEM	UNIT_ABBREV	IC50
CCOC(=O)c1c(NC(=S)Nc2ccc(OC)c(OC)c2)sc2c1C(C)CCC2 (stereo not given)	C-X-C chemokine receptor type 2 (Homo sapiens)	µM	7.7
CCOC(=O)c1c(NC(=S)Nc2ccc(C(C)(C)C)cc2)sc2c1C(C)CCC2 (stereo not given)	C-X-C chemokine receptor type 2 (Homo sapiens)	µM	7
CCOC(=O)c1c(NC(=S)Nc2ccc(OC(F)(F)F)cc2)sc2c1C(C)CCC2 (stereo not given)	C-X-C chemokine receptor type 2 (Homo sapiens)	µM	2.2
C[C@@H](NC(=S)Nc1sc2c(c1C(=O)OC(C)(C)C)CCOC2)c1ccccc1	C-X-C chemokine receptor type 2 (Homo sapiens)	µM	1.6

Indicate the recorded IC50 value for this compound: CC(C)(C)OC(=O)c1c(NC(=S)Nc2ccccc2)sc2c1CCCC2
1.8

----------
Please respond with reported IC50 for every item in the list.
EXPERIMENTAL_SYSTEM: UniProtKB P61073
Sequence (P61073 whole entry, the tested form may be a part): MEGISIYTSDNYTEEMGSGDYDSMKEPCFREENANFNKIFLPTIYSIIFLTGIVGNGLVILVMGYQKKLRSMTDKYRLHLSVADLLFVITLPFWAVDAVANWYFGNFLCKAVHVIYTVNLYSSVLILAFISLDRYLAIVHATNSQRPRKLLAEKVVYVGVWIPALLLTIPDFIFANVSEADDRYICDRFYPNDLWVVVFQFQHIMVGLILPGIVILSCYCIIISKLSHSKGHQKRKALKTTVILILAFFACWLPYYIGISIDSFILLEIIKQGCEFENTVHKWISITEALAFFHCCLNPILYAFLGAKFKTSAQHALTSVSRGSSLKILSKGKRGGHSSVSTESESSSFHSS
MEASUREMENT_DESCRIPTION: Antagonist activity at CXCR4 (unknown origin) expressed in U2OS cells cotransfected with beta-arrestin/TEV protease fusion protein and beta-lactamase assessed as inhibition of SDF1-alpha-induced beta arrestin2 recruitment preincubated for 30 mins followed by SDF1-alpha stimulation and measured after 5 hrs by FRET based fluorescence/Tango assay

In the examples that follow, each entry is paired with its recorded IC50.
MOLECULE	EXPERIMENTAL_SYSTEM	REPORTED_METRIC	TEST_RESULT
CC(C)(C)OC(=O)c1c(NC(=S)Nc2ccc(F)cc2)sc2c1CCOC2	UniProtKB P61073	IC50	> 30 µM
CCOC(=O)c1c(NC(=S)Nc2ccccc2O)sc2c1C(C)CCC2 (stereo unspecified)	UniProtKB P61073	IC50	> 10 µM
CC(C)(C)OC(=O)c1c(NC(=S)Nc2ccccc2)sc2c1CCN(Cc1ccccc1)C2	UniProtKB P61073	IC50	> 10 µM
COc1ccc(NC(=S)Nc2sc3c(c2C(=O)OC(C)(C)C)C(C)CCC3)cc1OC (stereo unspecified)	UniProtKB P61073	IC50	> 10 µM
COc1ccc(NC(=S)Nc2sc3c(c2C(=O)OC(C)(C)C)CCOC3)cc1OC	UniProtKB P61073	IC50	> 10 µM
CCOC(=O)c1c(NC(=S)Nc2ccc(N(C)C)cc2)sc2c1C(C)CCC2 (stereo unspecified)	UniProtKB P61073	IC50	> 10 µM
CC(C)(C)OC(=O)c1c(NC(=S)Nc2ccccc2)sc2c1CCNC2	UniProtKB P61073	IC50	> 10 µM
CC(C)(C)OC(=O)c1c(NC(=S)Nc2ccc(OC(F)(F)F)cc2)sc2c1CCOC2	UniProtKB P61073	IC50	> 30 µM

For every item below, please supply its IC50.
1. CN1CCc2c(sc(NC(=S)Nc3ccccc3)c2C(=O)OC(C)(C)C)C1
2. COc1cccc(NC(=S)Nc2sc3c(c2C(=O)OC(C)(C)C)C(C)CCC3)c1 (stereo unspecified)
3. CCOC(=O)c1c(NC(=S)Nc2ccc3c(c2)OC(F)(F)O3)sc2c1C(C)CCC2 (stereo unspecified)
4. CCOC(=O)c1c(NC(=S)Nc2ccccc2F)sc2c1C(C)CCC2 (stereo unspecified)

1: > 10 µM; 2: > 10 µM; 3: 26.7 µM; 4: 12 µM

Please state IC50 for every molecule in the list that follows.
1. CCOC(=O)c1c(NC(=S)Nc2ccc(OC)cc2)sc2c1C(C)CCC2 (stereo unspecified)
2. CC(C)(C)OC(=O)c1c(NC(=S)Nc2ccccc2)sc2c1COC(C)(C)C2
3. CC1CCCc2sc(NC(=S)Nc3ccccc3)c(C(N)=O)c21 (stereo unspecified)
4. CC(C)(C)OC(=O)c1c(NC(=S)Nc2ccccc2)sc2c1CCCC2
5. CC1CCCc2sc(NC(=S)Nc3ccc4c(c3)OC(F)(F)O4)c(C(=O)OC(C)(C)C)c21 (stereo unspecified)

11.5 µM
> 10 µM
> 10 µM
> 10 µM
> 10 µM
